Target chain: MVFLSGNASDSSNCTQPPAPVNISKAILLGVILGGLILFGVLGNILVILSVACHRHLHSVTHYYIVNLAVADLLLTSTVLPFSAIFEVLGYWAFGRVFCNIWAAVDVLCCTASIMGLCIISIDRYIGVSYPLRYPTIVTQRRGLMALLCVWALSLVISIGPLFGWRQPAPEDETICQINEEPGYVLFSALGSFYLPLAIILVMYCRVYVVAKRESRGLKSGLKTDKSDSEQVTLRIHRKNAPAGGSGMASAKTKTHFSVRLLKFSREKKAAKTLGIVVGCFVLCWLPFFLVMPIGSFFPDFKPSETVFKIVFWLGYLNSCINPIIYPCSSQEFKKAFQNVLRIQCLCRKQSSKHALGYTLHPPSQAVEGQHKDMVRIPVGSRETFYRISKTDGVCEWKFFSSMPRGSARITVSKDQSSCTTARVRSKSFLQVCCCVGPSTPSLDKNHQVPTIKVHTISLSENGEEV
OBSERVED_PROPERTY: AC50

What AC50 value was documented for this compound, "CC(C)N(CCCCOCC(=O)NS(C)(=O)=O)c1cnc(-c2ccccc2)c(-c2ccccc2)n1" ? > 10 µM

Count: 2. Required value per item: AC50.
1. NS(=O)(=O)c1cc2c(cc1C(F)(F)F)NC(Cc1ccccc1)NS2(=O)=O (stereo not drawn) [BENDROFLUMETHIAZIDE]
2. CCN(CC)C(=O)C1CN2CCc3cc(OC)c(OC)cc3C2CC1OC(C)=O (stereo not drawn) [BENZQUINAMIDE]

1. > 10 µM
2. > 10 µM

meta.source: ChEMBL document CHEMBL5291721
